Data provenance: ChEMBL document CHEMBL1201862

# System: SK-MEL-5
# assay-info: NCI tumour cell line growth inhibition, 48 h
Calls of active or inactive are those of the source. Cut-off read from the data, not from the text of the source: active = GI50 up to about 1.1 µM and inactive = higher.
measured-metric: GI50

{"columns": ["molecule", "result"],
 "data": [
  ["Cc1nc2c(n1Cc1ccc(F)cc1)C(=O)c1ccccc1C2=O", "10.3 µM (inactive)"],
  ["CC(=O)NC1(c2cc3ccccc3s2)CCCCCC1", "27.1 µM (inactive)"],
  ["CC(=O)CCn1c(=S)sc2ccccc21", "56.8 µM (inactive)"],
  ["COc1cc(/C=C/C=C2\\CC(C)C/C(=C\\C=C\\c3ccc(O)c(OC)c3)C2=O)ccc1O (configuration not stated)", "10.5 µM (inactive)"],
  ["COc1cccc(C2c3cc4c(cc3OC(N3CCOCC3)C2C)OCO4)c1OC (configuration not stated)", "9.59 µM (inactive)"],
  ["C[n+]1cn(C2=C([N-]S(=O)(=O)c3ccccc3)C(=O)c3ccccc3C2=O)c2ccccc21", "6.08 µM (inactive)"],
  ["O=C1/C(=C/c2ccccc2S)N=C(c2ccccc2)N1c1nc2ccc(Sc3ccccc3)cc2[nH]1", "18.4 µM (inactive)"]
]}
